- Test system: up to 32 different microorganisms
- Protocol Notes: in vitro antibacterial activity (MIC), agar dilution on Brain Heart Infusion (BHI) agar with Steers replicator
- Format: cell-based
- Condition Label: Streptococcus agalactiae CMX 508 (code KK); unit assumed
Property Label: MIC

Take a look at these entries with their results.
CCC1OC(=O)C(C)C(=O)C(C)C(OC2OC(C)CC(N(C)C)C2O)C(C)(OCC=Cc2cnc3ccccc3c2)CC(C)C(=O)C(C)C2N(CCN(C)C)C(=O)OC12C (stereo not shown) = 0.05 µg/mL
C=CCO[C@@]1(C)C[C@@H](C)C(=O)[C@H](C)[C@H]2NC(=O)O[C@]2(C)[C@@H](CC)OC(=O)[C@H](C)C(=O)[C@H](C)[C@H]1O[C@@H]1O[C@H](C)C[C@H](N(C)C)[C@H]1O = 0.2 µg/mL
CCCO[C@@]1(C)C[C@@H](C)C(=O)[C@H](C)[C@@H](O)[C@](C)(O)[C@@H](CC)OC(=O)[C@H](C)C(=O)[C@H](C)[C@H]1O[C@@H]1O[C@H](C)C[C@H](N(C)C)[C@H]1O = 25 µg/mL

Request body: readout MIC, system up to 32 different microorganisms, query CCC1OC(=O)C(C)C(=O)C(C)C(OC2OC(C)CC(N(C)C)C2O)C(C)(OCC=Cc2cccnc2)CC(C)C(=O)C(C)C2NC(=O)OC12C (stereo not shown) . Return the value.
0.01 µg/mL

I'm curious: which MIC was measured for `CC[C@H]1OC(=O)[C@H](C)C(=O)[C@H](C)[C@@H](O[C@@H]2O[C@H](C)C[C@H](N(C)C)[C@H]2O)[C@@](C)(OCCN)C[C@@H](C)C(=O)[C@H](C)[C@@H](O)[C@]1(C)O` tested on up to 32 different microorganisms?
6.2 µg/mL

// fetch up to 32 different microorganisms MIC for `CC[C@H]1OC(=O)[C@H](C)C(=O)[C@H](C)[C@@H](O[C@@H]2O[C@H](C)C[C@H](N(C)C)[C@H]2O)[C@@](C)(OCC=Cc2ccccc2)C[C@@H](C)C(=O)[C@H](C)[C@@H](O)[C@]1(C)O`
0.2 µg/mL

Hi! What's the reported MIC for CCC1OC(=O)C(C)C(=O)C(C)C(OC2OC(C)CC(N(C)C)C2O)C(C)(OCC=Cc2ccc3c(c2)OCCO3)CC(C)C(=O)C(C)C2NC(=O)OC12C (stereo not shown) on up to 32 different microorganisms?
0.01 µg/mL

Form: Entry = `CC[C@H]1OC(=O)[C@H](C)C(=O)[C@H](C)[C@@H](O[C@@H]2O[C@H](C)C[C@H](N(C)C)[C@H]2O)[C@@](C)(OCC=Cc2ccc(F)cc2)C[C@@H](C)C(=O)[C@H](C)[C@@H](O)[C@]1(C)O` | System = up to 32 different microorganisms | MIC = ____
0.39 µg/mL

# query: MIC | item CCC1OC(=O)C(C)C(=O)C(C)C(OC2OC(C)CC(N(C)C)C2O)C(C)(OCC=Cc2cccc3ncccc23)CC(C)C(=O)C(C)C2NC(=O)OC12C (stereo not shown) | system: up to 32 different microorganisms
≤ 0.005 µg/mL

Missing value: MIC, up to 32 different microorganisms, entry CC[C@H]1OC(=O)[C@H](C)C(=O)[C@H](C)[C@@H](O[C@@H]2O[C@H](C)C[C@H](N(C)C)[C@H]2O)[C@@](C)(OCC(O)C#N)C[C@@H](C)C(=O)[C@H](C)[C@@H](O)[C@]1(C)O (stereo partly shown) . Fill in?
0.02 µg/mL

---

- System: up to 32 different microorganisms
- Protocol Notes: in vitro antibacterial activity (MIC), agar dilution on Brain Heart Infusion (BHI) agar with Steers replicator
- Format: cell-based
- Condition Label: organism code HH; unit assumed
Property Label: MIC
In your response, the unit should come after the numeric value.

// MIC lookup, key: `CC[C@H]1OC(=O)[C@H](C)C(=O)[C@H](C)[C@@H](O[C@@H]2O[C@H](C)C[C@H](N(C)C)[C@H]2O)[C@@](C)(OCC#Cc2ccc3cc(OC)ccc3c2)C[C@@H](C)C(=O)[C@H](C)[C@H]2NC(=O)O[C@@]21C`
0.1 µg/mL

Entry CCC1OC(=O)C(C)C(=O)C(C)C(OC2OC(C)CC(N(C)C)C2O)C(C)(OCC=Cc2cnc3ccc(OC)cc3c2)CC(C)C(=O)C(C)C2NC(=O)OC12C (stereo not shown) has what MIC?
0.1 µg/mL

Please report the recorded MIC for `CC[C@H]1OC(=O)[C@H](C)C(=O)[C@H](C)[C@@H](O[C@@H]2O[C@H](C)C[C@H](N(C)C)[C@H]2O)[C@@](C)(OCC=NOCc2ccnc3ccccc23)C[C@@H](C)C(=O)[C@H](C)[C@H]2NC(=O)O[C@@]21C` .
0.2 µg/mL

Item under review: CCC1OC(=O)C(C)C(=O)C(C)C(OC2OC(C)CC(N(C)C)C2O)C(C)(OCC=Cc2cnc3ccc(NC(C)=O)cc3c2)CC(C)C(=O)C(C)C2NC(=O)OC12C (stereo not shown) . Reported MIC?
0.2 µg/mL

---

- System: up to 32 different microorganisms
- Protocol Notes: in vitro antibacterial activity (MIC), agar dilution on Brain Heart Infusion (BHI) agar with Steers replicator
- Format: cell-based
- Condition Label: Escherichia coli JUHL (code QQ); unit assumed
Property Label: MIC

Here's what some known entries look like.
CC[C@H]1OC(=O)[C@H](C)C(=O)[C@H](C)[C@@H](O[C@@H]2O[C@H](C)C[C@H](N(C)C)[C@H]2O)[C@@](C)(OCC=Cc2cnc3ccccc3c2)C[C@@H](C)C(=O)[C@H](C)[C@@H](O)[C@]1(C)O = > 100 µg/mL
CC[C@H]1OC(=O)[C@H](C)C(=O)[C@H](C)[C@@H](O[C@@H]2O[C@H](C)C[C@H](N(C)C)[C@H]2O)[C@@](C)(OCCNCCc2ccccc2)C[C@@H](C)C(=O)[C@H](C)[C@@H](O)[C@]1(C)O = > 100 µg/mL
CCCO[C@@]1(C)C[C@@H](C)C(=O)[C@H](C)[C@@H](O)[C@](C)(O)[C@@H](CC)OC(=O)[C@H](C)C(=O)[C@H](C)[C@H]1O[C@@H]1O[C@H](C)C[C@H](N(C)C)[C@H]1O = > 100 µg/mL

Now take the following compound into account.
Value lookup for MIC; key = CCC1OC(=O)C(C)C(=O)C(C)C(OC2OC(C)CC(N(C)C)C2O)C(C)(OCC=Cc2cccc([N+](=O)[O-])c2)CC(C)C(=O)C(C)C2NC(=O)OC12C (stereo not shown)
100 µg/mL

---

Reported MIC values for a set of compounds
- Test system: up to 32 different microorganisms
- Protocol Notes: in vitro antibacterial activity (MIC), agar dilution on Brain Heart Infusion (BHI) agar with Steers replicator
- Format: cell-based
- Condition Label: Streptococcus Pneumonia ATCC6303 (code XX); unit assumed
Reply numerically in mg/L, unit not repeated.

C=CCO[C@@]1(C)C[C@@H](C)C(=O)[C@H](C)[C@H]2N(C)C(=O)O[C@]2(C)[C@@H](CC)OC(=O)[C@H](C)C(=O)[C@H](C)[C@H]1O[C@@H]1O[C@H](C)C[C@H](N(C)C)[C@H]1O [Example 179] = 0.5
CC[C@H]1OC(=O)[C@H](C)C(=O)[C@H](C)[C@@H](O[C@@H]2O[C@H](C)C[C@H](N(C)C)[C@H]2O)[C@@](C)(OCc2ccc3ccccc3c2)C[C@@H](C)C(=O)[C@H](C)[C@H]2NC(=O)O[C@@]21C [Example 176] = 0.25
CC[C@H]1OC(=O)[C@H](C)C(=O)[C@H](C)[C@@H](O[C@@H]2O[C@H](C)C[C@H](N(C)C)[C@H]2O)[C@@](C)(OCC=Cc2ccc(Cl)cc2)C[C@@H](C)C(=O)[C@H](C)[C@@H](O)[C@]1(C)O [Example 17] = 1
CCC1OC(=O)C(C)C(=O)C(C)C(OC2OC(C)CC(N(C)C)C2O)C(C)(OCC=Cc2ccc3c(c2)OCO3)CC(C)C(=O)C(C)C2NC(=O)OC12C (centres unmarked) [Example 188] = 0.03

Name the recorded MIC for C=CCO[C@@]1(C)C[C@@H](C)C(=O)[C@H](C)[C@H]2OC(=O)O[C@]2(C)[C@@H](CC)OC(=O)[C@H](C)C(=O)[C@H](C)[C@H]1O[C@@H]1O[C@H](C)C[C@H](N(C)C)[C@H]1O [Example 71] .
0.25

---

- Tested on: up to 32 different microorganisms
- Protocol Notes: in vitro antibacterial activity (MIC), agar dilution on Brain Heart Infusion (BHI) agar with Steers replicator
- Type: cell-based
- Condition Label: organism code QQ; unit assumed
Recorded MIC for the following compounds
Write it as a number; the unit µg/mL goes unstated.

CCC1OC(=O)C(C)C(=O)C(C)C(OC2OC(C)CC(N(C)C)C2O)C(C)(OCC=Cc2cnc3ccc(C#N)cc3c2)CC(C)C(=O)C(C)C2NC(=O)OC12C (stereo not shown) [Example 218, R is —CH2CH═CH-(6-cyano-3-quinolyl)] = 50
CCC1OC(=O)C(C)C(=O)C(C)C(OC2OC(C)CC(N(C)C)C2O)C(C)(OCC=Cc2ccc3cc(O)ccc3c2)CC(C)C(=O)C(C)C2NC(=O)OC12C (stereo not shown) [Example 287] = 50
CCC1OC(=O)C(C)C(=O)C(C)C(OC2OC(C)CC(N(C)C)C2O)C(C)(OCC#Cc2cnc3ccccc3c2)CC(C)C(=O)C(C)C2NC(=O)OC12C (stereo not shown) [Example 247] = 25

We next turn to a different compound, shown below.
Field request: MIC | item: CCC1OC(=O)C(C)C(=O)C(C)C(OC2OC(C)CC(N(C)C)C2O)C(C)(OCC=Cc2cnc3cccc([N+](=O)[O-])c3c2)CC(C)C(=O)C(C)C2NC(=O)OC12C (stereo not shown) [Example 210, R is —CH2CH═CH-(5-nitro-3-quinolyl)]
50
